Each item that follows carries a reported log10 of IC50.
Target: KRas^G12C (Homo sapiens, UniProt P01116, G12C)
Construct: Biotinylated KRas (corresponding to amino acids 1-169, produced at Accelegan Inc.); biotin (biotinylated); purchased Accelegan Inc
Sequence (P01116 1-169 isoform P01116-2 G12C): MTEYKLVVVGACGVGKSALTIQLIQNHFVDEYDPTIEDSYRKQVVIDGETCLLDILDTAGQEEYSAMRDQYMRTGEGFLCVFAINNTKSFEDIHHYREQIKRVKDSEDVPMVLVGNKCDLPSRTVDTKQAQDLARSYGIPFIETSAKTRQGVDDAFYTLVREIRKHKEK
Assay: KRas binding assay (TR-FRET tracer displacement), KRas G12C
Details: TR-FRET tracer displacement, KRas G12C
Reminder: these figures are log10 of reported IC50, in nM before transformation.

# Molecule, Target system, log10 of IC50
data = [
    ("Cc1cc2[nH]nnc2c(-c2ncc3c(N4C[C@@H]5C[C@H](C4)[C@H](O)C5)nc(OCC45CCCN4CCC5)nc3c2F)c1C", "KRas^G12C (Homo sapiens, UniProt P01116, G12C)", 3.51),
]

# input molecule: Cc1cc2[nH]ccc2c(-c2ncc3c(N4CCC[C@@](C)(O)C4)nc(OCC45CCCN4CCC5)nc3c2F)c1C ; wanted: its log10 of IC50
3.58

# input molecule: Cc1cc2[nH]ncc2c(-c2ncc3c(N4CCC[C@]5(C4)NC(=O)NC5=O)nc(OC[C@@]45CCCN4C[C@H](F)C5)nc3c2F)c1C ; wanted: its log10 of IC50
1.04

---

Test system: KRas-mediated phosphorylation of ERK in MKN1 cells
Assay: Inhibition of KRas-mediated phosphorylation of ERK (Cisbio HTRF pERK), MKN1 cells
Assay type: cell-based
Details: Homo sapiens, MKN-1
Each item that follows carries a reported log10 of IC50.
Reminder: these figures are log10 of reported IC50, in nM before transformation.

Look over these answered cases.
# Compound, log10 of IC50
measured = [
    ("CCc1c(F)ccc2cc(O)cc(-c3ncc4c(NCc5cnn(C(=O)N(C)C)c5N)nc(OC[C@@]56CCCN5C[C@H](F)C6)nc4c3F)c12 [Example 640]", 2.32),
    ("CCc1c(F)ccc2cc(O)cc(-c3ncc4c(N5CCC[C@@](C)(O)C5)nc(OCC5(CN(C)C)C(C)C5C)nc4c3F)c12 (stereo partly drawn) [Example 818]", 1.79),
    ("CCc1c(F)ccc2cc(O)cc(-c3ncc4c(N5CCCC6(CC(O)C6)C5)nc(OCC5(CN(C)C)CC5)nc4c3F)c12 (stereo not drawn) [Example 698]", 1.23),
    ("CCc1c(F)ccc2cc(O)cc(-c3ncc4c(N5CCCCC5)nc(OC[C@@]56CCCN5C[C@H](F)C6)nc4c3F)c12 [Example 900]", 0.48),
    ("CCc1c(F)ccc2cc(O)cc(-c3ncc4c(N5CCC[C@@](C)(O)C5)nc(OC[C@]56CCCN5[C@H](COC)CC6)nc4c3F)c12 [Example 885]", 0.70),
]

Given the entry CCc1c(F)ccc2cc(O)cc(-c3ncc4c(N5CC6CCC(CC6)C5)nc(OC[C@@]56CCCN5C[C@H](F)C6)nc4c3F)c12 [Example 844] , what log10 of IC50 was observed with KRas-mediated phosphorylation of ERK in MKN1 cells?
2.30

Given the entry CCc1c(F)ccc2cc(O)cc(-c3ncc4c(N5CCC[C@@](C)(O)C5)nc(OC[C@]56CCCN5CC(=C(F)F)C6)nc4c3F)c12 (single isomer, unassigned) [Example 919] , what log10 of IC50 was observed with KRas-mediated phosphorylation of ERK in MKN1 cells?
0.48

---

Each item that follows carries a reported IC50.
Biological target: KRas^WT (Homo sapiens)
Construct: Biotinylated KRas (corresponding to amino acids 1-169, produced at Accelegan Inc.); biotin (biotinylated); purchased Accelegan Inc
Sequence (P01116 1-169 isoform P01116-2): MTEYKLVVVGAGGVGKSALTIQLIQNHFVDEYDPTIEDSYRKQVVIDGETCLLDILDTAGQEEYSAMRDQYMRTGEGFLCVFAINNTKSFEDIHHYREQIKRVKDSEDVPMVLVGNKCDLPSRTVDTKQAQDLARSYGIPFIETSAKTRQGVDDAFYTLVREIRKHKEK
Test: KRas binding assay (TR-FRET tracer displacement), KRas WT
Settings: TR-FRET tracer displacement, KRas WT
Reply with just the number (in nM).

Look over these answered cases.
# Compound, Units, Reported value
measured = [
    ("O=C1NC(=O)C2(CCCN(c3nc(OCC45CCCN4CCC5)nc4c(F)c(-c5c6ccccc6cc6[nH]ncc56)ncc34)C2)N1 (stereo not shown)", "nM", 13),
    ("Nc1nc2c(-c3ncc4c(N5CCCC6(C5)NC(=O)NC6=O)nc(OCC56CCCN5CCC6)nc4c3F)ccc(F)c2s1 (stereo not shown)", "nM", 139),
]

Attention now shifts to the item below.
# input compound: Cc1cc2[nH]nnc2c(-c2ncc3c(N4CCCC5(CNS(=O)(=O)N5)C4)nc(OCC45CCCN4CCC5)nc3c2F)c1C (stereo not shown) ; wanted: its IC50
26

---

Each item that follows carries a reported IC50.
Target: KRas^G12S (Homo sapiens, UniProt P01116, G12S)
Construct: Biotinylated KRas (corresponding to amino acids 1-169, produced at Accelegan Inc.); biotin (biotinylated); purchased Accelegan Inc
Sequence (P01116 1-169 isoform P01116-2 G12S): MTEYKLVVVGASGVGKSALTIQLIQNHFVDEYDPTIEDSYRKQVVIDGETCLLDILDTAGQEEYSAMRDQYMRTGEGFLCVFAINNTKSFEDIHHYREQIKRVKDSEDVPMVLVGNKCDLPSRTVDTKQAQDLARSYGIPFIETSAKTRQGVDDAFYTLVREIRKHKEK
Assay: KRas binding assay (TR-FRET tracer displacement), KRas G12S
Conditions: TR-FRET tracer displacement, KRas G12S
Reply with just the number (in nM).

# Compound, Target system, IC50 (nM)
records = [
    ("O=C1NCC2(CCCN(c3nc(OC[C@@]45CCCN4C[C@H](F)C5)nc4c(F)c(-c5c6ccccc6cc6[nH]ncc56)ncc34)C2)N1 (stereo partly drawn)", "KRas^G12S (Homo sapiens, UniProt P01116, G12S)", 76),
]

Attention now shifts to the item below.
# input compound: Cc1cc2[nH]nnc2c(-c2ncc3c(N4CCC[C@@](C)(O)C4)nc(OCC45CCCN4CCC5)nc3c2F)c1C ; wanted: its IC50
11600

---

Target: KRas^G12V (Homo sapiens, UniProt P01116, G12V)
Construct: Biotinylated KRas (corresponding to amino acids 1-169, produced at Accelegan Inc.); biotin (biotinylated); purchased Accelegan Inc
Sequence (P01116 1-169 isoform P01116-2 G12V): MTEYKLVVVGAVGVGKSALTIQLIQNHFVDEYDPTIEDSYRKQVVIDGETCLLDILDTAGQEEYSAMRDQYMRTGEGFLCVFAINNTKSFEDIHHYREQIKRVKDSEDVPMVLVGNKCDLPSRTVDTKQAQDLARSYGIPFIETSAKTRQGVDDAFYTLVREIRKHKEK
Experiment: KRas binding assay (TR-FRET tracer displacement), KRas G12V
Measurement label: IC50 (nM)
Reply with just the number (in nM).

# Molecule, Units, IC50
data = [
    ("CCc1c(F)ccc2cc(O)cc(-c3ncc4c(N5CCCn6nc(P(C)(C)=O)cc6C5)nc(OC[C@@]56CCCN5C[C@H](F)C6)nc4c3F)c12 [Example 660]", "nM", 7),
]

# input molecule: Cc1cc2[nH]ncc2c(-c2ncc3c(N4CCC[C@]5(C4)NC(=O)NC5=O)nc(OCC4(CN(C)C)CC4)nc3c2F)c1C [Example 732] ; wanted: its IC50
31

---

Each item that follows carries a reported inhibition at 0.01 µM.
Target: KRas^G13D (Homo sapiens, UniProt P01116, G13D)
Construct: Biotinylated KRas (corresponding to amino acids 1-169, produced at Accelegan Inc.); biotin (biotinylated); purchased Accelegan Inc
Sequence (P01116 1-169 isoform P01116-2 G13D): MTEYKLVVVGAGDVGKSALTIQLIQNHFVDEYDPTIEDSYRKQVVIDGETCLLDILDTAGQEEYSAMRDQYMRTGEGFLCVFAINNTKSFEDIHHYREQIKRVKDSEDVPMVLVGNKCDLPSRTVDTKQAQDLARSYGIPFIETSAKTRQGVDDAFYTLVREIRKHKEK
Assay: KRas binding assay (TR-FRET tracer displacement), KRas G13D
Conditions: single point, 10 nM compound, TR-FRET
Reply with just the number (in %).

Look over these answered cases.
# Molecule, inhibition at 0.01 µM [%]
records = [
    ("CCc1c(F)ccc2cc(O)cc(-c3ncc4c(N5CCC[C@@](C)(O)C5)nc(OC[C@@]56CCCN5[C@H](COC(=O)NC(C)C)CC6)nc4c3F)c12", 95),
    ("CN(C)C(=O)OC[C@@H]1CC[C@@]2(COc3nc(N4CCC[C@@](C)(O)C4)c4cnc(-c5cc(O)cc6ccc(F)c(F)c56)c(F)c4n3)CCCN12", 86),
    ("CCc1c(F)ccc2cc(O)cc(-c3ncc4c(N5CCCCn6nc(C(=O)N(C)C)cc6C5)nc(OC[C@@]56CCCN5C[C@H](F)C6)nc4c3F)c12", 93),
    ("CCc1c(F)ccc2cc(O)cc(-c3ncc4c(N5C[C@@H]6C[C@H](C5)[C@H](O)[C@@H]6O)nc(OC[C@@]56CCCN5C[C@H](F)C6)nc4c3F)c12", 98),
    ("C#Cc1c(F)ccc2cc(O)cc(-c3ncc4c(N5CCC[C@@](C)(O)C5)nc(OCC5(CN6CCCC6)CC5)nc4c3F)c12", 98),
]

Attention now shifts to the item below.
# input molecule: CCc1c(F)ccc2cc(O)cc(-c3ncc4c(N5CCCC6(C5)NC(=O)NC6=O)nc(OC[C@]56CCCN5[C@H](COC(=O)N(C)C)CC6)nc4c3F)c12 (stereo partly drawn) ; wanted: its inhibition at 0.01 µM
97

---

Each item that follows carries a reported IC50.
System: KRas-mediated phosphorylation of ERK in MKN1 cells
Test: Inhibition of KRas-mediated phosphorylation of ERK (Cisbio HTRF pERK), MKN1 cells
Type: cell-based
Conditions: Homo sapiens, MKN-1
Reply with just the number (in nM).

# Compound, IC50 [nM]
rows = [
    ("CCc1c(F)ccc2cc(O)cc(-c3ncc4c(NCC5CC(CO)NC5=O)nc(OC[C@@]56CCCN5C[C@H](F)C6)nc4c3F)c12 (stereo partly drawn) [Example 575]", 417),
]

# input compound: O=S1(=O)NCC2(CCCN(c3nc(OCC45CCCN4CCC5)nc4c(F)c(-c5cc(O)cc(Cl)c5C5CC5)ncc34)C2)N1 (stereo not drawn) [Example 745] ; wanted: its IC50
511
